- Assay comment: Solubility of compound in PBS at pH 7.4 at 5 mg incubated at 25 degreeC for 6 hrs by UHPLC analysis
- Format: physicochemical
Parameter: solubility at 6 h (µg/mL)
Provide the reading as a plain figure in µg/mL.

Sample records with solubility at 6 h:
CCCCC(=O)O[C@]1(C(=O)COC(=O)CN=C=S)[C@@H](C)C[C@H]2[C@@H]3CCC4=CC(=O)C=C[C@]4(C)[C@@]3(F)[C@@H](O)C[C@@]21C : 0.12
C[C@]12C=CC(=O)C=C1CC[C@@H]1[C@@H]2C(=O)C[C@@]2(C)[C@H]1CC[C@]2(O)C(=O)COC(=O)CN=C=S : 15.9

// switching to the query compound
Documented solubility at 6 h of `C[C@]12C=CC(=O)C=C1CC[C@@H]1[C@@H]2[C@@H](O)C[C@@]2(C)[C@H]1C[C@H]1O[C@@H](C3CCCCC3)O[C@]12C(=O)COC(=O)CN=C=S` : 0.25

* * *

- Assay comment: Induction of H2S release in PBS at pH 7.4 at 100 uM pretreated with L-Cys for 10 mins followed by compound addition and measured after 30 mins by free radical analyzer
- Format: physicochemical
- Measurement context: buffer, pH 7.4, 0.5 h
Parameter: Activity

C[C@]12C=CC(=O)C=C1CC[C@@H]1[C@@H]2C(=O)C[C@@]2(C)[C@H]1CC[C@]2(O)C(=O)COC(=O)CN=C=S : ~ 2 uM

// switching to the query molecule
Documented Activity of `C[C@@H]1C[C@H]2[C@@H]3CCC4=CC(=O)C=C[C@]4(C)[C@@]3(F)[C@@H](O)C[C@]2(C)[C@@]1(O)C(=O)COC(=O)CN=C=S` : ~ 2 uM

* * *

- Assay comment: Half life in simulated gastric fluid at pH 1.2 in absence of pepsin at 100 uM incubated at 37 degreeC up to 24 hrs by UPHLC analysis
- Assay type: ADME
- Measurement context: simulated gastric fluid without pepsin
Each record here notes measured half-life at 100 µM.
Provide the reading as a plain figure in h.

C[C@]12C=CC(=O)C=C1CC[C@@H]1[C@@H]2C(=O)C[C@@]2(C)[C@H]1CC[C@]2(O)C(=O)COC(=O)CN=C=S : 18

Documented half-life at 100 µM of `C[C@@H]1C[C@H]2[C@@H]3CCC4=CC(=O)C=C[C@]4(C)[C@@]3(F)[C@@H](O)C[C@]2(C)[C@@]1(O)C(=O)COC(=O)CN=C=S` : 10

* * *

- Assay comment: Solubility of compound in simulated gastric fluid at pH 1.2 in absence of pepsin at 5 mg incubated at 25 degreeC for 6 hrs by UHPLC analysis
- Type: ADME
- Measurement context: simulated gastric fluid without pepsin
Each record here notes measured solubility at 6 h.

Sample records with solubility at 6 h:
CCCC1O[C@@H]2C[C@H]3[C@@H]4CCC5=CC(=O)C=C[C@]5(C)[C@H]4[C@@H](O)C[C@]3(C)[C@]2(C(=O)COC(=O)CN=C=S)O1 (stereo partly drawn) : < 0.1 µg/mL
C[C@@H]1C[C@H]2[C@@H]3CCC4=CC(=O)C=C[C@]4(C)[C@@]3(F)[C@@H](O)C[C@]2(C)[C@@]1(O)C(=O)COC(=O)CN=C=S : < 0.1 µg/mL

// switching to the query molecule
Documented solubility at 6 h of `C[C@]12C=CC(=O)C=C1CC[C@@H]1[C@@H]2[C@@H](O)C[C@@]2(C)[C@H]1C[C@H]1O[C@@H](C3CCCCC3)O[C@]12C(=O)COC(=O)CN=C=S` : < 0.1 µg/mL

The reported measurements were obtained from ChEMBL document CHEMBL5579848.
